assayed-system: serotonin 5-HT6 receptors (Homo sapiens, UniProt P50406)
Construct: expressed in transfected cells; host or cells: HeLa cells (membranes)
Sequence (P50406 whole entry): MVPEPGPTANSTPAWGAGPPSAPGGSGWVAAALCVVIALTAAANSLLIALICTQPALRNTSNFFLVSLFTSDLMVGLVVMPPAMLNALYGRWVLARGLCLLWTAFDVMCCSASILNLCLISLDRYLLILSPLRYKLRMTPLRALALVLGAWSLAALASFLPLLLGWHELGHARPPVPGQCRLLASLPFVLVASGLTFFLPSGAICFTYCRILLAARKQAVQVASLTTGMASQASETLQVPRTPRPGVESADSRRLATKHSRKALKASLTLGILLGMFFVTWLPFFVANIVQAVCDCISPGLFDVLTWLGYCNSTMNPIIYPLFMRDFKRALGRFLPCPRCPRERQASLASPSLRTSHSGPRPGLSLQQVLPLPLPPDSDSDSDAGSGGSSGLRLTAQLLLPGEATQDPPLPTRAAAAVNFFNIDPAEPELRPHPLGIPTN
test-method-notes: [3H]LSD displacement from 5-HT6 receptors expressed in HeLa cell membranes
Type: binding

item-smiles | IC50, µM
Cc1ccc2c(c1)[C@@H]1CN(C)CCC[C@H]1N2CCc1cccnc1 | 0.787

###

assayed-system: serotonin 5-HT6 receptors (Homo sapiens, UniProt P50406)
Construct: expressed in transfected cells; host or cells: HeLa cells (membranes)
test-method-notes: [3H]LSD displacement from 5-HT6 receptors expressed in HeLa cell membranes
Format: binding
reported-conditions: [3H]LSD displacement at various compound concentrations; HeLa cell membranes; read-out: IC50 (concentration of halfmaximum blocking of [3H]LSD binding), seeming affinity to 5-HT6 receptor
Method: Investigation of ligand activity of azaheterocyclic compounds of the general formula 1 to 5-HT6 receptor. […] Ligand activity was determined by the ability of azaheterocyclic compounds of the general formula 1 to displace concurrently tritium-labelled diethyl […] of lysergic acid ([^3H]LSD), specifically bound to serotonin 5-HT6 receptors, which are expressed in HeLa cells membranes [Monsma F J Jr, Shen Y, Ward R P, Hamblin M W and Sibley D R (1993). […]
pIC50: −log10 of the molar value.
measurement-label: pIC50

item-smiles | numeric-readout
Cc1ccc(CCn2c3c(c4cc(C)ccc42)CN(C)CCC3)nc1 | 5.90
Cc1ccc2c(c1)c1c(n2CCc2ccncc2)CCCN(C)C1 | 5.97
Cc1ccc2c(c1)c1c(n2CCc2ccc(C)nc2)CCN(C)C1 | 7.13
Cc1ccc2c(c1)c1c(n2CCc2cccnc2)CCCN(C)C1 | 6.13

###

assayed-system: serotonin 5-HT6 receptors (Homo sapiens)
Construct: expressed in transfected cells; host or cells: HeLa cells (membranes)
test-method-notes: [3H]LSD displacement from 5-HT6 receptors expressed in HeLa cell membranes
Format: binding
reported-conditions: displacement of 1.5 nM [3H]LSD; tested compounds at 10 mkM; HeLa cell membranes; 2 hr at 37° C.
# Interaction efficiency of compounds of the general formula 1 with 5-HT6 receptor, % per record follows
measurement-label: Interaction efficiency of compounds of the general formula 1 with 5-HT6 receptor, % (%)

compound | unit-abbreviation | numeric-readout
Cc1ccc2c(c1)[C@@H]1CN(C)CCC[C@H]1N2CCc1ccc(C)nc1 | % | 93
Cc1ccc2c(c1)c1c(n2CCc2cccnc2)CCCN(C)C1 | % | 79
Cc1ccc2c(c1)[C@@H]1CN(C)CC[C@@H]1N2C(=O)Nc1cccc(C(F)(F)F)c1 | % | 47
Cc1ccc2c(c1)C1CN(C)CCC1N2S(=O)(=O)c1nc2cc(C)nc(C)n2n1 (stereo not drawn) | % | 82
CN1CCc2c(c3ccccc3n2Cc2ccccc2)C1 | % | 71
Cc1ccc2c(c1)[C@@H]1CNCCC[C@@H]1N2CCc1cccnc1 | % | 84
Cc1ccc2c(c1)c1c(n2CCc2ccc(C)nc2)CCN(C)C1 | % | 100
Cc1ccc2c(c1)C1CN(C)CCC1N2C(=O)c1ccccc1 (stereo not drawn) | % | 52
Cc1ccc2c(c1)c1c(n2CCc2ccccn2)CCCN(C)C1 | % | 88
Cc1ccc2c(c1)[C@@H]1CN(C)CCC[C@H]1N2CCc1cccnc1 | % | 93
Cc1ccc2c(c1)c1c(n2CCc2ccncc2)CCCN(C)C1 | % | 84
Cc1ccc2c(c1)[C@@H]1CNCCC[C@@H]1N2CCc1ccc(C)nc1 | % | 76
Cc1ccc2c(c1)[C@@H]1CN(C)C[C@@H]1N2CCc1ccc(C)nc1 | % | 27
Cc1ccc(CCn2c3c(c4cc(C)ccc42)CN(C)CCC3)nc1 | % | 84
Cc1ccc(S(=O)(=O)n2c3c(c4cc(C)ccc42)CN(C)C3)cc1 | % | 77
